Where these numbers come from: patent US20100160304A1

- measured on: aldosterone receptor MR (Rattus norvegicus, UniProt P22199)
- Sequence (P22199 whole entry): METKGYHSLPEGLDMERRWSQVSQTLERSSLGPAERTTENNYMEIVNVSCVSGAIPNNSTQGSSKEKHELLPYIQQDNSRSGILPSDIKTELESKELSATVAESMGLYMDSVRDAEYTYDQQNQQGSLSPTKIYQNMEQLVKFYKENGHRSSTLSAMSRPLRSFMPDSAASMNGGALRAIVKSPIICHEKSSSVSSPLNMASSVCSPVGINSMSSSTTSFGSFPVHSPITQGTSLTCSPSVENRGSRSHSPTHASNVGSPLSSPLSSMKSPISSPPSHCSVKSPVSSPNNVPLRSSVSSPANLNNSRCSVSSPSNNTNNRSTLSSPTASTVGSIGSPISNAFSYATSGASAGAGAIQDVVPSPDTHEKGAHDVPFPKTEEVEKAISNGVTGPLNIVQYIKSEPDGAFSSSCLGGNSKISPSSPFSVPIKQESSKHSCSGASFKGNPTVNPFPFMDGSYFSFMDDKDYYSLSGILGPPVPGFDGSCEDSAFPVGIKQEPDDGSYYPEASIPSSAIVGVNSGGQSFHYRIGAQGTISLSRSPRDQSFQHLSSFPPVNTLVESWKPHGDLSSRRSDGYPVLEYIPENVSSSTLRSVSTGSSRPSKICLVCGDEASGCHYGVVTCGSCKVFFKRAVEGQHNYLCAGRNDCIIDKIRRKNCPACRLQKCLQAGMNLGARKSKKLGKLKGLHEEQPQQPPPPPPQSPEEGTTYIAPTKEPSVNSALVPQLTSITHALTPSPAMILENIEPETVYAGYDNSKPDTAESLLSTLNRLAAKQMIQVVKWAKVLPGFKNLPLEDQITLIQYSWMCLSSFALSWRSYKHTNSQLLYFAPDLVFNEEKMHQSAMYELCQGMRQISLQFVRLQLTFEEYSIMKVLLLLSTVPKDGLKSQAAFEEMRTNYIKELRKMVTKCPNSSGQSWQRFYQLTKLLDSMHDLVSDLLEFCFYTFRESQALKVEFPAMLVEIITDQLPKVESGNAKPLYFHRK
pIC50: −log10 of the molar value.
endpoint name: pIC50

Please review the following examples before continuing.
- compound: "CC1=CC(C)(C)Nc2ccc(NS(=O)(=O)c3ccc(C)cc3)cc21"
  pIC50: 6.52
- compound: "Cc1ccc(S(=O)(=O)Nc2ccc3c(c2)C(C)CC(C)(C)N3)cc1 (stereo not drawn)"
  pIC50: 5.66
- compound: "CC1(C)OC(=S)Nc2ncc(NS(=O)(=O)c3cccs3)cc21"
  pIC50: 5.26
- compound: "Cc1ccc(S(=O)(=O)Cc2cnc3c(c2)C(C)(C)OC(=S)N3)cc1"
  pIC50: 5.89
- compound: "CC1=CC(C)(C)Nc2ccc(NS(=O)(=O)c3cccc(F)c3)cc21"
  pIC50: 5.82
- compound: "CC1=CC(C)(C)Nc2ccc(NS(=O)(=O)c3cccs3)cc21"
  pIC50: 6.89
- compound: "CC1=CC(C)(C)Nc2ccc(N(C)S(=O)(=O)c3cccs3)cc21"
  pIC50: 6.82
- compound: "Cc1ccc(S(=O)(=O)Cc2ccc3c(c2)C(C)(C)OC(=S)N3)cc1"
  pIC50: 8.15
- compound: "CC1CC(C)(C)Nc2ccc(NS(=O)(=O)c3ccc4ccccc4c3)cc21 (stereo not drawn)"
  pIC50: 5.41
- compound: "C=CC1OC(=S)Nc2ccc(NS(=O)(=O)c3cccs3)cc21 (stereo not drawn)"
  pIC50: 5.54

1: CC1=CC(C)(C)Nc2ccc(NS(=O)(=O)c3cc4ccccc4s3)cc21
2: CC1(C)OC(=S)Nc2ncc(CS(=O)(=O)c3cccnc3)cc21
3: CC1=CC(C)(C)Nc2cc(C)c(NS(=O)(=O)c3ccc(C)cc3)cc21
4: Cc1ccc(S(=O)(=O)N(C)c2ccc3c(c2)C(C)CC(C)(C)N3)cc1 (stereo not drawn)
5: CC1(C)OC(=S)Nc2ccc(NS(=O)(=O)c3cccs3)cc21
rank_up(items): orders items by reported pIC50 in ascending numerical order. // ordering of labels required in reply
2, 4, 3, 1, 5
(2: 5.18, 4: 5.68, 3: 5.89, 1: 6.41, 5: 7.89)

---

- measured on: UniProtKB P22199
endpoint name: IC50 (nM)

- compound: "CC(=O)N(c1ccc2c(c1)C(C)=CC(C)(C)N2)S(=O)(=O)c1ccc(Cl)cc1"
  IC50 / nM: 300
- compound: "CC1(C)OC(=S)Nc2ccc(OS(=O)(=O)c3ccc4ccccc4c3)cc21"
  IC50 / nM: 470
- compound: "CC1(C)OC(=S)Nc2ccc(CS(=O)(=O)c3ccccc3)cc21"
  IC50 / nM: 39

P: CC(=O)N(c1ccc2c(c1)C(C)=CC(C)(C)N2)S(=O)(=O)c1ccccc1
Q: Cc1ccc(S(=O)(=O)Oc2ccc(NS(C)(=O)=O)cc2)cc1
R: CC1=CC(C)(C)Nc2ccc(NS(=O)(=O)c3ccccc3C)cc21
S: Cc1ccc(S(=O)(=O)Cc2ccc3c(c2)CCC(C(F)(F)F)N3)cc1 (stereo not drawn)
rank_up(items): orders items by reported IC50 in ascending numerical order. // ordering of labels required in reply
P, R, S, Q
(P: 500 nM, R: 900 nM, S: 1800 nM, Q: 6600 nM)

I: Cc1ccc(S(=O)(=O)Cc2ccc3c(c2)C(C)CC(C)(C)N3)cc1 (stereo not drawn)
II: Cc1ccc(S(=O)(=O)Oc2ccc(NS(C)(=O)=O)cc2C)cc1
Would you mind telling me which has the lower recorded IC50 between I and II ? Indicate which entry you chose by stating its label.
I
